Each record here notes measured stoichiometry N.
system tested: ϕMalE-NapAsp^His (E. coli)
protocol notes: ITC
// return a plain number; no unit text

The examples below pair each entry with its known result.
- binder: "NapD A71T (NapD^His variant) (natural protein) MHTNWQVCSLVVQAKSERISDISTQLNAFPGCEVAVSDAPSGQLIVVVEAEDSETLIQTIESVRNVEGVLTVSLVYHQQEEQGEETP"
  measured property: "stoichiometry N"
  recorded result: 0.83
- binder: "NapD I19F (NapD^His variant) (natural protein) MHTNWQVCSLVVQAKSERFSDISTQLNAFPGCEVAVSDAPSGQLIVVVEAEDSETLIQTIESVRNVEGVLAVSLVYHQQEEQGEETP"
  measured property: "stoichiometry N"
  recorded result: 0.97

# ---- query binder ----
What stoichiometry N value was documented for this binder, NapD I19F/T59I (NapD^His variant) (natural protein) MHTNWQVCSLVVQAKSERFSDISTQLNAFPGCEVAVSDAPSGQLIVVVEAEDSETLIQIIESVRNVEGVLAVSLVYHQQEEQGEETP ?
0.39

Where do the numbers come from? From paper PMC3712460.
